target: VIM-2 (Escherichia coli); assay: Inhibitory activity on MBL, fluorescent substrate FC-5; format: biochemical; conditions: read-out: Inhibitory activity on MBL VIM-2 (IC50 class)
pIC50: −log10 of the molar value.
Assignment: determine reported pIC50 for the given compounds.

Example entries and their recorded answers appear below.
# compound, target-or-test-system, pIC50
data = [
    ("O=C(O)c1c(Cn2ncc3ccccc32)ccc2c1OB(O)CC2", "VIM-2 (Escherichia coli)", "6.00 to 8.00"),
    ("O=C(O)c1c(Cn2cncn2)ccc2c1OB(O)CC2", "VIM-2 (Escherichia coli)", "6.00 to 8.00"),
    ("O=C(O)c1c(CN2CC=CC2)ccc2c1OB(O)CC2", "VIM-2 (Escherichia coli)", "4.00 to 6.00"),
    ("N=C(N)N1Cc2cnn(Cc3ccc4c(c3C(=O)O)OB(O)CC4)c2C1", "VIM-2 (Escherichia coli)", "6.00 to 8.00"),
    ("O=C(O)c1c(CN2C[C@H](O)CC2=O)ccc2c1OB(O)CC2", "VIM-2 (Escherichia coli)", "6.00 to 8.00"),
    ("C[n+]1ccn(Cc2ccc3c(c2C(=O)O)OB(O)CC3)n1", "VIM-2 (Escherichia coli)", "6.00 to 8.00"),
    ("NS(=O)(=O)c1ccc(-c2cn(Cc3ccc4c(c3C(=O)O)OB(O)CC4)nn2)cc1", "VIM-2 (Escherichia coli)", "6.00 to 8.00"),
    ("O=C(O)c1c(Cn2ccc3cncnc32)ccc2c1OB(O)CC2", "VIM-2 (Escherichia coli)", "6.00 to 8.00"),
]

Report pIC50 for every entry below.
1. NS(=O)(=O)NCCc1cn(Cc2ccc3c(c2C(=O)O)OB(O)CC3)nn1
2. CO[C@H]1Cc2ccc(Cn3ccnn3)c(C(=O)O)c2OB1O
3. CCCc1cn(Cc2ccc3c(c2C(=O)O)OB(O)CC3)nn1
4. O=C(O)c1c(Cn2cc3c(n2)CNC3)ccc2c1OB(O)CC2 [Compound 56-Na]

6.00 to 8.00
6.00 to 8.00
4.00 to 6.00
6.00 to 8.00

Report pIC50 for every entry below.
1. O=C(O)c1c(Cn2cc3c(n2)CNC3)ccc2c1OB(O)[C@@H]1C[C@H]21
2. N#Cc1cccn1Cc1ccc2c(c1C(=O)O)OB(O)CC2

1. 6.00 to 8.00
2. 4.00 to 6.00

###

molecular target: VIM-1 (Pseudomonas aeruginosa); assay: Inhibitory activity on MBL, fluorescent substrate FC-5; type: biochemical; details: read-out: Inhibitory activity on MBL VIM-1 (IC50 class)
pIC50: −log10 of the molar value.
Assignment: determine reported pIC50 for the given compounds.

# compound, pIC50
measured = [
    ("NC(=O)c1ccn(Cc2ccc3c(c2C(=O)O)OB(O)CC3)n1", "6.00 to 8.00"),
]

Report pIC50 for every entry below.
1. NS(=O)(=O)c1ccc(-c2cn(Cc3ccc4c(c3C(=O)O)OB(O)CC4)nn2)cc1
2. O=C(O)c1c(Cn2nccn2)ccc2c1OB(O)CC2
3. NS(=O)(=O)NCc1cnn(Cc2ccc3c(c2C(=O)O)OB(O)CC3)c1
4. CC(N)c1cnn(Cc2ccc3c(c2C(=O)O)OB(O)CC3)c1 (centres unmarked)
5. NCc1ccc(-c2cn(Cc3ccc4c(c3C(=O)O)OB(O)CC4)nn2)cc1
6. Nc1ccc(-c2cn(Cc3ccc4c(c3C(=O)O)OB(O)CC4)nn2)cc1
7. CC(C)(N)C#Cc1cnn(Cc2ccc3c(c2C(=O)O)OB(O)CC3)c1
8. N=C(N)N1Cc2cnn(Cc3ccc4c(c3C(=O)O)OB(O)CC4)c2C1

1: 6.00 to 8.00; 2: 4.00 to 6.00; 3: 4.00 to 6.00; 4: 4.00 to 6.00; 5: 6.00 to 8.00; 6: 6.00 to 8.00; 7: 4.00 to 6.00; 8: 4.00 to 6.00

Report pIC50 for every entry below.
1. N[C@H]1CC(=O)N(Cc2ccc3c(c2C(=O)O)OB(O)CC3)C1
2. O=C(O)c1c(Cn2cncn2)ccc2c1OB(O)CC2

1: 4.00 to 6.00; 2: 4.00 to 6.00
